Value source: patent US20250027068

Molecular target: pooled human IgG (human IgG1, 2, 3 and 4)
metric: Enzyme Activity Endpoint Assay: IgG (ng/µL)

- protein: "PRT-452 (protein) MVTSVWTKGVTPPANFTQGEDVFHAPYKANQGWYDITKAFDGGDDLLCGAATAGNMLHWWFDQNKDQIEAYLKEHPEKQKINFNGEQMFDVKEAIDTKDDQTNSELFNYFKEKAFPYLSTKHLGVFPDHVLDMFINGYRLSLTNHGPTPVKEGSKDPRGGIFDAVFTRGDQSKLLTSRHDLKNKTLKEISDLIKQELTEGKALALSHTYANVRINHVINLWGADFDSNGNLEAIYVTDSDSNASIGMKKYFVGVNSAGKVAISAKEIEDDNIGAQVLGLFTLSTGQDIWNQTNLEHHHHHH"
  metric: "Enzyme Activity Endpoint Assay: IgG"
  unit_abbreviation: "ng/µL"
  recorded_measurement: 1870
- protein: "PRT-533 (protein) MANQEIRYSSDSEWANKKVWVYGITPPEEGAWKYSTYYLPWKKEYGWYDCNKRNPTADGMMCWAATASNLLHWWIAQNKEYIDLYGDKYKGPDKINFNGEQMFDVKEYIDPLDKPQESDIFQCFIDKSFADLSTKHEAGYGDAGINWFIHGIIPSSPAHGPTPVKLDYPYNPAGYFKDVFPRGDGVVLLGNNGDFKELSKERFNETIKDALKNKKAIGLSIGPVNVRSSHVVTIWGAEFDENGDVSYIYMADNNDRWGVGCIRYQIVYEEGGTYTCYKTEIIPSDRPIPINRLVTLELGEEYWKQTNLEHHHHHH"
  metric: "Enzyme Activity Endpoint Assay: IgG"
  unit_abbreviation: "ng/µL"
  recorded_measurement: 1140
- protein: "PRT-407 (protein) MVTSVWTKGVTPPADFTQGEDVFHAPYVANQGWYDITKTFNGKDDLLCGAATAGNMLHWWFDQNKEYIEAYLKKHPEKQKIIFGDQELLDVRKAINTKGSQKNSELFNYFRDKAFPNLSARRLGVMPDLVLDMFINGYYLNVTKTQTTDVNRTYQEKDKRGGIFDAVFTRGDQSKLLTSRHDFKEKGLKEISDLIKQELTEGKALGLSHTYANVRINHVINLWGADFDSDGNLKAIYVTDSDSNASIGMKKYFVGVNSAGKVAISAKEIKEDNIGAQVLGLFTLSTGQDIWNQTN"
  metric: "Enzyme Activity Endpoint Assay: IgG"
  unit_abbreviation: "ng/µL"
  recorded_measurement: 90
- protein: "PRT-504 (protein) MITSVWTKGVTPPTDFIKGEDVFHAPYKAGQGWYDITKAFDGGDDLLCGAATAGNMLHWWFDQNKEYIEAYLKKHPEKQKIMFGDQELLDVRKAINTKGSQKNSELFNYFRDKAFPNLSARRLGVMPDLVLDMFINGYYLNVTKTQTTDVNRTYQEKDKRGGIFDAVFTRGDQSKLLTSRHDLKNKGLNEISQLIKQELTEGKALGLSHTYANVRINHVINLWGADFDADGNLEAIYVTDSDSNASIGMKKYFVGVNSAGKVAISAKEIKEDNIGAQVLGLFTLSTGQDIWNQTNLEHHHHHH"
  metric: "Enzyme Activity Endpoint Assay: IgG"
  unit_abbreviation: "ng/µL"
  recorded_measurement: 0
